# System: L1210 leukemia ip in BDF1 mice, survival T/C
# test: NCI In Vivo Anticancer Drug Screen. Data for tumor model L1210 Leukemia (intraperitoneal) in B6D2F1 (BDF1) mice
# conditions: endpoint: mean survival time; dose: 200.0 mg/kg/injection; schedule: Q01DX009 (ip); vehicle: saline with Tween-80; higher = longer survival
Toxic doses and inconclusive results are not listed.
recordedEndpoint: T/C

Example results:
>>> obsvalue("CC(=O)Oc1ccc(OC(C)=O)c2c1C(=O)CCCC2=O")
"93 % of control"
>>> obsvalue("CCCC1(CCC)NC(=O)N(CC(=O)OCC)C1=O")
"96 % of control"

Form field: reported T/C of O=C1/C(=C2\CCCc3ccc(Cl)cc32)CCc2ccc(Cl)cc21
97 % of control

What do we get for CC(=O)N/N=C(/C)C(O)(c1ccccc1)c1ccccc1 ?
92 % of control

What do we get for OCCN1CCSC1=S ?
88 % of control

What do we get for CC(C)COC(C[N+](=O)[O-])C(Cl)(Cl)Cl (stereo unspecified) ?
89 % of control

What do we get for CCCCCCOc1ccc(/C=N\N=C\c2ccc(OCCCCCC)cc2)cc1 ?
89 % of control

What do we get for CC(=O)Oc1ccc(Cl)cc1 ?
103 % of control

What do we get for CC(=O)Nc1ccc(/C=N/NC(=O)CC2CCCCC2)cc1 ?
93 % of control

What do we get for O=c1ccn(-c2ccccc2)c(=S)[nH]1 ?
95 % of control

What do we get for NOCc1nnc(Nc2ccccc2)s1 ?
90 % of control

What do we get for CC(=O)c1ccc2c3c(cccc13)CC2 ?
98 % of control

What do we get for S=C(S)N1CCC(CCCC2CCN(C(=S)S)CC2)CC1 ?
88 % of control

What do we get for CCCCCCC(C)O[Si](C)c1ccc(-c2ccccc2)cc1 (stereo unspecified) ?
105 % of control

What do we get for O=C(O)CSC(=S)c1ccccc1 ?
93 % of control

What do we get for C=C(C(=O)c1ccccc1)C(O)c1ccccc1 (stereo unspecified) ?
90 % of control

----------
# Tested on: L1210 leukemia ip in BDF1 mice, survival T/C
# test: NCI In Vivo Anticancer Drug Screen. Data for tumor model L1210 Leukemia (intraperitoneal) in B6D2F1 (BDF1) mice
# conditions: endpoint: mean survival time; dose: 100.0 mg/kg/injection; schedule: Q01DX009 (ip); vehicle: Klucel (hydroxypropylcellulose) (HPC)
Inconclusive results and toxic doses are left out. No stated cut-off is given here; in the data, active means T/C of 150% or more; inactive means T/C below 125%.
Pick one and only one: active, inactive

>>> group("CC(=O)Nc1ccc(S(=O)(=O)N(C)Cc2ccccc2)cc1")
"inactive"

Call for entry CN(C)c1ccc(C(C#N)(c2ccc(N(C)C)cc2)c2ccc(N(C)C)cc2)cc1 :
inactive

What do we get for Cc1ccc(Nc2ccc([N+](=O)[O-])cc2[N+](=O)[O-])c(C)c1 ?
inactive

What do we get for Cc1cc(=O)[nH]c(N/N=C2/CCCCC2C)n1 (stereo not drawn) ?
inactive

What do we get for C1=C2NNC(c3ccccc3)=C(c3ccccc3)C2=CCC1 (tested in a mixture with another compound) ?
inactive

What do we get for CCOC(=O)/C(C)=N\Nc1ccc(Cl)cc1 ?
inactive

----------
# Test system: L1210 leukemia ip in BDF1 mice, survival T/C
# test: NCI In Vivo Anticancer Drug Screen. Data for tumor model L1210 Leukemia (intraperitoneal) in B6D2F1 (BDF1) mice
# conditions: endpoint: mean survival time; dose: 200.0 mg/kg/injection; schedule: Q01DX005 (ip); vehicle: saline; higher = longer survival
Inconclusive results and toxic doses are left out.
recordedEndpoint: T/C

>>> obsvalue("O=C(Nc1ccc(C(=O)CCl)cc1)Nc1ccc(C(=O)CCl)cc1")
"102 % of control"
>>> obsvalue("COc1ncnc2c1c(C#N)cn2C1OC(CO)C(O)C1O (stereo not given)")
"93 % of control"
>>> obsvalue("CCCc1nc2c(=O)n(C3OC(CO)C(O)C3O)cnc2o1 (stereo not given)")
"91 % of control"
>>> obsvalue("CC1(C)OC2COC(c3[nH]nc(C(N)=O)c3C(=O)N=[N+]=[N-])C2O1 (stereo not given)")
"101 % of control"

# query: T/C | item NCCCCNc1ncnc2c1ncn2C1OC(CO)C(O)C1O (stereo not given) | system: L1210 leukemia ip in BDF1 mice, survival T/C
116 % of control

----------
T/C overview
# System: L1210 leukemia ip in BDF1 mice, survival T/C
# test: NCI In Vivo Anticancer Drug Screen. Data for tumor model L1210 Leukemia (intraperitoneal) in B6D2F1 (BDF1) mice
# conditions: endpoint: mean survival time; dose: 200.0 mg/kg/injection; schedule: Q01DX009 (ip); vehicle: gum acacia; higher = longer survival
Inconclusive results and toxic doses are left out.

Form field: reported T/C of CC(C)N(C(=O)Nc1cccc2ccccc12)c1ccccc1
96 % of control

What do we get for Cc1c(Cl)cccc1NC(=O)c1ccc(Cl)c(Cl)c1 ?
88 % of control

What do we get for CC(C)(C)c1ccc(OC(=O)Nc2cccc(C(F)(F)F)c2)cc1 ?
95 % of control

What do we get for COc1ccc(C)cc1N=Nc1cc(C)ccc1OC ?
91 % of control

----------
# Test system: L1210 leukemia ip in BDF1 mice, survival T/C
# test: NCI In Vivo Anticancer Drug Screen. Data for tumor model L1210 Leukemia (intraperitoneal) in B6D2F1 (BDF1) mice
# conditions: endpoint: mean survival time; dose: 100.0 mg/kg/injection; schedule: Q04DX002 (ip); vehicle: saline with Tween-80; higher = longer survival
Inconclusive results and toxic doses are left out.
T/C overview

Example results:
>>> obsvalue("O=S(=O)(c1ccccc1)n1c(C(O)c2cccnc2)cc2ccccc21 (stereo not given)")
"93 % of control"
>>> obsvalue("Cc1cccc(P(=O)(c2ccccc2)c2ccccc2)c1 (tested in a mixture with another compound)")
"104 % of control"
>>> obsvalue("c1ccc(C(c2ccccc2)c2ccncc2)cc1")
"87 % of control"
>>> obsvalue("CCOC(=O)C(CCC#N)(CCC(=O)OC)C(C)=O (stereo not given)")
"97 % of control"
>>> obsvalue("Cc1c[n+]([O-])c(C)cc1N=Nc1ccc(N(C)C)cc1")
"89 % of control"
>>> obsvalue("N#C/C(=C/c1cccc2ccccc12)C(N)=O")
"98 % of control"
>>> obsvalue("CCOC(=O)c1ccc(N=C2C(C)(C)C(=Nc3ccc(C(=O)OCC)cc3)C2(C)C)cc1")
"93 % of control"
>>> obsvalue("CC12CCC(=O)CC1CCC1C2CCC2(C)C(C(=O)O)CCC12 (stereo not given)")
"108 % of control"
>>> obsvalue("CN(C)Cc1c(O)ccc2ccccc12")
"100 % of control"
>>> obsvalue("Cc1cccc(NC(=S)/C(=C(/[O-])c2ccccc2)[n+]2ccc3ccccc3c2)c1")
"98 % of control"

Form field: reported T/C of Oc1ccc(Cl)cc1C=Nc1ccc2c(c1)OCO2
91 % of control

What do we get for Cc1cccc(C)c1NC(=S)NNC(=O)c1ccncc1 ?
101 % of control

What do we get for CCCCCCCCOC(=O)CCCCl ?
107 % of control

What do we get for O=C(Cc1ccccc1)C(c1ccccc1)C(c1ccccc1)c1ccccc1 (stereo not given) ?
96 % of control

What do we get for O=C(Nc1ccccc1)N1CCN=C1C1CCCc2ccccc21 (stereo not given) ?
89 % of control

----------
T/C overview
# Tested on: L1210 leukemia ip in BDF1 mice, survival T/C
# test: NCI In Vivo Anticancer Drug Screen. Data for tumor model L1210 Leukemia (intraperitoneal) in B6D2F1 (BDF1) mice
# conditions: endpoint: mean survival time; dose: 100.0 mg/kg/injection; schedule: Q01DX009 (ip); vehicle: saline; higher = longer survival
Toxic doses and inconclusive results are not listed.

Example results:
>>> obsvalue("O=c1cc(-c2ccc(S(=O)(=O)F)cc2)[nH]c2ccc([N+](=O)[O-])cc12")
"101 % of control"
>>> obsvalue("OC(c1ccccc1)(c1ccccc1)C1CCCCC1C(O)(c1ccccc1)c1ccccc1 (stereo unspecified)")
"93 % of control"
>>> obsvalue("C1CCC(C2OCCO2)CC1")
"98 % of control"
>>> obsvalue("CCOC(=O)/C=C(\\CC(=O)OCC)Nc1ccc(OC)cc1")
"91 % of control"
>>> obsvalue("Cc1cccc(=O)n1CCC#N")
"96 % of control"
>>> obsvalue("CN(C)CCC(=O)O")
"92 % of control"
>>> obsvalue("COc1ccc2c(c1)CN(S(=O)(=O)c1ccc(C)cc1)CCC2=O")
"102 % of control"
>>> obsvalue("CC(=O)NCCc1ccc(NCCCc2c(-c3ccccc3)nc(N)[nH]c2=O)cc1")
"97 % of control"
>>> obsvalue("O=C(O)c1ccc([N+](=O)[O-])cc1C(=O)O")
"100 % of control"
>>> obsvalue("c1ccc2c(c1)C1CC(N3CCCCC3)C2c2ccccc21 (stereo unspecified)")
"102 % of control"

Let's switch to this molecule now.
Form field: reported T/C of O=C(O)c1ccc(=O)[nH]c1
95 % of control
